# Tested on: EcR1: Penicillinase-Producing Escherichia coli without Associated Resistance
# PROTOCOL: Antibiogram, MIC by the VITEK 2 system
# Type: cell-based
# CONDITION DESCRIPTION: EcR1, MIC against Cc EUCAST 2011
READOUT KIND: EUCAST Interpretation

Prompt line: Give the reported value of EUCAST Interpretation for this record: CCN1CCN(C(=O)N[C@@H](C(=O)N[C@@H]2C(=O)N3[C@@H]2SC(C)(C)[C@@H]3C(=O)O)c2ccccc2)C(=O)C1=O
Response line: Susceptible

Prompt line: Give the reported value of EUCAST Interpretation for this record: CC(C)(O/N=C(\C(=O)N[C@@H]1C(=O)N2C(C(=O)[O-])=C(C[n+]3ccccc3)CS[C@H]12)c1csc(N)n1)C(=O)O
Response line: Susceptible

Prompt line: Give the reported value of EUCAST Interpretation for this record: CCn1cc(C(=O)O)c(=O)c2cc(F)c(N3CCNCC3)cc21
Response line: Susceptible

###

# System: SaR1: Meticillin-Resistant Staphylococcus aureus without Associated Resistance
# PROTOCOL: Antibiogram, MIC by the VITEK 2 system
# Type: cell-based
# CONDITION DESCRIPTION: Staphylococcus aureus; SaR1; Table D1; read-out: MIC
Assignment: determine reported MIC for the given compounds.

Prompt line: Give the reported value of MIC for this record: O=C1CN(/N=C/c2ccc([N+](=O)[O-])o2)C(=O)N1
Response line: ≤ 16 µg/mL

Prompt line: Give the reported value of MIC for this record: CC(=O)O[C@H]1C[C@@]2(C)[C@@H](C[C@@H](O)[C@H]3[C@@]4(C)CC[C@@H](O)[C@@H](C)[C@@H]4CC[C@@]32C)/C1=C(\CCC=C(C)C)C(=O)O
Response line: ≤ 0.5 µg/mL

Prompt line: Give the reported value of MIC for this record: CC(=O)NC[C@H]1CN(c2ccc(N3CCOCC3)c(F)c2)C(=O)O1
Response line: 2 µg/mL

Prompt line: Give the reported value of MIC for this record: CO[C@H]1/C=C/O[C@@]2(C)Oc3c(C)c(O)c4c(O)c(c(/C=N/N5CCN(C)CC5)c(O)c4c3C2=O)NC(=O)/C(C)=C\C=C\[C@H](C)[C@H](O)[C@@H](C)[C@@H](O)[C@@H](C)[C@H](OC(C)=O)[C@@H]1C
Response line: ≤ 0.5 µg/mL

###

Assignment: determine reported MIC for the given molecules.
# Test system: ESBL-producing strain of Escherichia coli, having an associated resistance to the aminoglycosides (EcR3)
# PROTOCOL: MIC of the compounds used alone, microdilution in a liquid medium (CLSI)
# Assay type: cell-based
# CONDITION DESCRIPTION: Escherichia coli, antibiotic alone (second value of cell), read-out: Initial MICs
Kindly answer with a numeric value in µg/mL, unit omitted.

Prompt line: Give the reported value of MIC for this record: CC(C)(O/N=C(\C(=O)N[C@@H]1C(=O)N2C(C(=O)[O-])=C(C[n+]3ccccc3)CS[C@H]12)c1csc(N)n1)C(=O)O
Response line: 1

Prompt line: Give the reported value of MIC for this record: NCC[C@H](O)C(=O)N[C@@H]1C[C@H](N)[C@@H](O[C@H]2O[C@H](CN)[C@@H](O)[C@H](O)[C@H]2O)[C@H](O)[C@H]1O[C@H]1O[C@H](CO)[C@@H](O)[C@H](N)[C@H]1O
Response line: 1

Prompt line: Give the reported value of MIC for this record: CCN1CCN(C(=O)N[C@@H](C(=O)N[C@@H]2C(=O)N3[C@@H]2SC(C)(C)[C@@H]3C(=O)O)c2ccccc2)C(=O)C1=O
Response line: 128

Prompt line: Give the reported value of MIC for this record: C[C@@H](O)[C@H]1C(=O)N2C(C(=O)O)=C(S[C@@H]3CN[C@H](C(=O)Nc4cccc(C(=O)O)c4)C3)[C@H](C)[C@H]12
Response line: 0.0015

Prompt line: Give the reported value of MIC for this record: CO/N=C(\C(=O)N[C@@H]1C(=O)N2C(C(=O)O)=C(COC(C)=O)CS[C@H]12)c1csc(N)n1
Response line: 128
